Overview of reported max response across a group of molecules:
# System: HEK293
# ASSAY_COMMENT: Cytotoxic Profiling of Annotated Libraries Using Quantitative High-Throughput Screening (AID 1296008); note: % is set by controls: 0 for no effect and ±100 for the full control effect; nearly all actives have a fitted effect of over 60% in size
# SETUP_CONDITIONS: Five cell lines viability, CellTiter-Glo ATP luminescence, 48-72 h; hits give low values
Records with an inconclusive call do not appear.
Could you give me the number in %? Just the number is fine.

Below, 10 molecules whose answers are already recorded.
MOLECULE	MEASUREMENT_TARGET	MEASUREMENT
COc1cc2c3c(cc4ccccc4c3c1O)NC2=O	HEK293	-10.3
Nc1ncnc2c([C@@H]3N[C@H](CO)[C@@H](O)[C@H]3O)c[nH]c12	HEK293	1.17
CNS(=O)(=O)CC1CCC(N(C)c2ncnc3[nH]ccc23)CC1 (centres undefined)	HEK293	-8.69
CC1CCC2(CO)C(C(=O)O)=CCCC2C1(C)CCc1ccoc1 (centres undefined)	HEK293	-3.01
O=C(/C=C\c1ccc(O)cc1)N[C@@H](Cc1ccc(O)cc1)C(=O)O	HEK293	1.95
O=C(O)C(O[C@@H]1O[C@H](CO[C@@H]2O[C@H](CO)[C@@H](O)[C@H](O)[C@H]2O)[C@@H](O)[C@H](O)[C@H]1O)c1ccccc1 (some centres undefined)	HEK293	-7.94
O=C(O[C@H]1[C@@H]2C=CO[C@@H](O[C@@H]3O[C@H](CO)[C@@H](O)[C@H](O)[C@H]3O)[C@@H]2[C@@]2(CO)O[C@@H]12)c1ccccc1	HEK293	-2.12
CCOCc1cc(OC)c(-c2ccc(C[C@H](NC(=O)c3c(F)cccc3F)C(=O)O)cc2)c(OC)c1	HEK293	-1.31
CC(=O)N[C@H]1[C@H](O[C@H]2CC[C@@]3(C)C(CC[C@]4(C)C3CC=C3[C@@H]5CC(C)(C)CC[C@]5(C(=O)OC5OCC(O)C(O)C5O)CC[C@]34C)C2(C)C)O[C@H](COC2OC(C)C(O)C(OC3OC(C)C(O)C(O)C3O)C2O)[C@@H](O)[C@@H]1O (some centres undefined)	HEK293	-2.57
C[C@@H]1O[C@@H](O[C@H]2[C@H](O)[C@@H](C(=O)O)O[C@@H](O[C@H]3CC[C@@]4(C)C(CC[C@]5(C)C4CC=C4C6CC(C)(C)CC[C@]6(C(=O)O)CC[C@]45C)C3(C)C)[C@@H]2O[C@@H]2OC[C@@H](O)[C@H](O)[C@H]2O)[C@H](O)[C@H](O)[C@H]1O (some centres undefined)	HEK293	-0.663

Now for a further molecule.
What reported max response corresponds to COc1cc2ncnc(Nc3ccc(O)cc3)c2cc1OC on HEK293?
-8.09
